# SYSTEM_UNDER_TEST: insulin receptor of isolated rat adipocytes (rat, UniProt P15127 27-1383)
# Sequence (P15127 27-1383): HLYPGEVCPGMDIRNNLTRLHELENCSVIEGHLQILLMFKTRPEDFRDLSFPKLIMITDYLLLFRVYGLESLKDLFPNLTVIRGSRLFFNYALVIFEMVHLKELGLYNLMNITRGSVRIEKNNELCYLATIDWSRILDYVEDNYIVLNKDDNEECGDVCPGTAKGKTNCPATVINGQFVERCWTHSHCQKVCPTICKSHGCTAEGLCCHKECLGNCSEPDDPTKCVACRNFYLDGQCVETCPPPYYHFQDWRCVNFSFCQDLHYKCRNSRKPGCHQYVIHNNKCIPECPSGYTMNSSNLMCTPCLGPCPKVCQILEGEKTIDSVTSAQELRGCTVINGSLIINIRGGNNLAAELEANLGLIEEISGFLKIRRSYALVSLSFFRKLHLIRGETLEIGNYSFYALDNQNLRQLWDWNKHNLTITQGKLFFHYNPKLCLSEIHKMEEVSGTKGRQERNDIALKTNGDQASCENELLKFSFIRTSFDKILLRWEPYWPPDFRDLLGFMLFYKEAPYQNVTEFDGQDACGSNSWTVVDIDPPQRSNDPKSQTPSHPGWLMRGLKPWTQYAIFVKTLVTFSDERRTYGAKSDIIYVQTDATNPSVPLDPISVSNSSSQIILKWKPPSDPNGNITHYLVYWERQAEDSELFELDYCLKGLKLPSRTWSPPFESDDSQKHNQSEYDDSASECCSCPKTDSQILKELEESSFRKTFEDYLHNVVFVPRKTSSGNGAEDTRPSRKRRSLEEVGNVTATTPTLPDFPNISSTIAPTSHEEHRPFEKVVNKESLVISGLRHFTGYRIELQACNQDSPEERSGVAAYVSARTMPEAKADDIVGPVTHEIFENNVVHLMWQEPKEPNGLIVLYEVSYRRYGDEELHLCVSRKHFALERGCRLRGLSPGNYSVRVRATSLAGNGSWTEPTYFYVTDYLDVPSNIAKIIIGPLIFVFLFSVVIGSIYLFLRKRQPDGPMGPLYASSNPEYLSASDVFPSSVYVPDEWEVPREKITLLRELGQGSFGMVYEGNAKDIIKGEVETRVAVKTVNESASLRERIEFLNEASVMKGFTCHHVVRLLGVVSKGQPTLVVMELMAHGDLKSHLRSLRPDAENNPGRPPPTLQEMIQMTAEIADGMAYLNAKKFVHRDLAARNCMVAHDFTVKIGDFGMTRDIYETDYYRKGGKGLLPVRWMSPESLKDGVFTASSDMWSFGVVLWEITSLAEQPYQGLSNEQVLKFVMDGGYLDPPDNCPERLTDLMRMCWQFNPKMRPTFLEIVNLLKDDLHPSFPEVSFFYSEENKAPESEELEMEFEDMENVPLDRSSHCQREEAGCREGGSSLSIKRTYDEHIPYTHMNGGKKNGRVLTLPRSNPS
# ASSAY_NAME: cell-based or functional assay
REPORTED_METRIC: Lipogenesis in rat adipocytes [Potency (%)] Mean Value

stdin: Entry A14E, A21G, A22(GQAPGQAPGQEP)6-GQAP, A98K^, A99P, B3Q, B25H, B29R, desB30 human insulin/(227A, 234A, 235K, 297E, 315Q, 384Q, des447 hIgG4-Fc(228-447)) … (other, Cys229 (EU numbering) sulphur bound to an acetyl arm of the linker; A98K N(eps) acylated by the trivalent linker 4-[bis[2-[(2-acetyl)amino]ethyl]carbamoylamino]butanoyl, also called Ex 5.24) chain 1: GIVEQCCTSICSLEQLENYCGGQAPGQAPGQEPGQAPGQAPGQEPGQAPGQAPGQEPGQAPGQAPGQEPGQAPGQAPGQEPGQAPGQAPGQEPGQAPKP chain 2: FVQQHLCGSHLVEALYLVCGERGFHYTPR chain 3: ASCPAPEAKGGPSVFLFPPKPKDTLMISRTPEVTCVVVDVSQEDPEVQFNWYVDGVEVHNAKTKPREEQFESTYRVVSVLTVLHQDWLQGKEYKCKVSNKGLPSSIEKTISKAKGQPREPQVYTLPPSQEEMTKNQVSLTCLVKGFYPSDIAVEWESQGQPENNYKTTPPVLDSDGSFFLYSRLTVDKSRWQEGNVFSCSVMHEALHNHYTQKSLSLSLG needs its Lipogenesis in rat adipocytes [Potency (%)] Mean Value filled in; supply it.
stdout: 3.83 % of human insulin
